target.system: GluN1/GluN2D Q701Y (Rattus norvegicus, UniProt P35439+Q62645, Q701Y)
Sequence (Q62645 28-1323 Q701Y, other chains not shown): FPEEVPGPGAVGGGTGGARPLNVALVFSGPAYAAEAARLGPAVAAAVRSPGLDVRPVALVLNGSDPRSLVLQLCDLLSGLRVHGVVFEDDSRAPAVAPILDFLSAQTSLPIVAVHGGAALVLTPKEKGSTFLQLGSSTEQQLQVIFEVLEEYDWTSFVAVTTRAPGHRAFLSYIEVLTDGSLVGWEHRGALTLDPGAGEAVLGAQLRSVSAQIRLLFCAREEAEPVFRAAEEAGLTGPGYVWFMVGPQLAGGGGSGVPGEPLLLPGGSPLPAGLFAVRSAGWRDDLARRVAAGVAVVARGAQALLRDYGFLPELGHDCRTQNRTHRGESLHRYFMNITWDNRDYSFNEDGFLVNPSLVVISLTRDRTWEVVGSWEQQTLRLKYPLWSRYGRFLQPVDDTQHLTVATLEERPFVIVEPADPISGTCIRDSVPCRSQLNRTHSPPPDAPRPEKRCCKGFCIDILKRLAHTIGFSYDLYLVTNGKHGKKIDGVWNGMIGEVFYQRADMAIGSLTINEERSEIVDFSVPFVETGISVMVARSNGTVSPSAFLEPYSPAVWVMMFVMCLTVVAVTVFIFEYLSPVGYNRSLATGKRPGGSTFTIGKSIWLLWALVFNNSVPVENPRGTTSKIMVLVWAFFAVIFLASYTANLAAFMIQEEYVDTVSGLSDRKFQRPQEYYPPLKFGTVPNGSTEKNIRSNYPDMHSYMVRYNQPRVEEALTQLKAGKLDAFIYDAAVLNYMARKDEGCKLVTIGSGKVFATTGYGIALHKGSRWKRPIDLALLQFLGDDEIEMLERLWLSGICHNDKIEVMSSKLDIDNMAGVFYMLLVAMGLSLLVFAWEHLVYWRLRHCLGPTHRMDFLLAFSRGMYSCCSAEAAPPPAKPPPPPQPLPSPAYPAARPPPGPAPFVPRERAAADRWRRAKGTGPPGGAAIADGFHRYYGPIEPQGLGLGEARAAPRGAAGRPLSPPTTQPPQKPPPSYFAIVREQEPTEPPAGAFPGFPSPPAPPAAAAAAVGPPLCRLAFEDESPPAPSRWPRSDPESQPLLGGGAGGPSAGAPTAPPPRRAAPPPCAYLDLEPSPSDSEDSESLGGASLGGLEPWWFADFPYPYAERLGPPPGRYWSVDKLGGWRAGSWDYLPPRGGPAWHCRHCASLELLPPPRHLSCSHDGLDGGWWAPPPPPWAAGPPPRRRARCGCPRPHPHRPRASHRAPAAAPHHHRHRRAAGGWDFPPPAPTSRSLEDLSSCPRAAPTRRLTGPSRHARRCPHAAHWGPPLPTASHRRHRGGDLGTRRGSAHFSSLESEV
test.description: Two-electrode voltage-clamp recordings, mutant receptor in Xenopus oocytes
pIC50: −log10 of the molar value.

[
  {
    "compound": "COc1ccc2nc(/C=C/c3cccc([N+](=O)[O-])c3)n(-c3ccc(C(=O)O)cc3)c(=O)c2c1 [QNZ46]",
    "pIC50": 5.11
  }
]

###

target.system: GluN1/GluN2D L705F (Rattus norvegicus, UniProt P35439+Q62645, L705F)
test.description: Two-electrode voltage-clamp recordings, mutant receptor in Xenopus oocytes
metric: IC50

[
  {
    "compound": "COc1ccc2nc(/C=C/c3cccc([N+](=O)[O-])c3)n(-c3ccc(C(=O)O)cc3)c(=O)c2c1 [QNZ46]",
    "metric": "IC50",
    "val": "23 µM"
  }
]

###

target.system: GluN1/GluN2D K779Y (Rattus norvegicus, UniProt P35439+Q62645, K779Y)
test.description: Two-electrode voltage-clamp recordings, mutant receptor in Xenopus oocytes

[
  {
    "structure.string": "COc1ccc2nc(/C=C/c3cccc([N+](=O)[O-])c3)n(-c3ccc(C(=O)O)cc3)c(=O)c2c1",
    "IC50": "19 µM"
  }
]

###

target.system: GluN1/GluN2D QEQY/HDYS + L705F + K779Y (Rattus norvegicus, UniProt P35439+Q62645, E700D/K779Y/L705F/Q699H/Q701Y/Y702S)
test.description: Two-electrode voltage-clamp recordings, mutant receptor in Xenopus oocytes

[
  {
    "structure.string": "COc1ccc2nc(/C=C/c3cccc([N+](=O)[O-])c3)n(-c3ccc(C(=O)O)cc3)c(=O)c2c1",
    "scale.unit": "µM",
    "IC50": 15
  }
]

###

target.system: GluN1/GluN2D M726A (Rattus norvegicus, UniProt P35439+Q62645, M726A)
test.description: Two-electrode voltage-clamp recordings, mutant receptor in Xenopus oocytes
pIC50: −log10 of the molar value.
metric: pIC50

[
  {
    "structure.string": "COc1ccc2nc(/C=C/c3cccc([N+](=O)[O-])c3)n(-c3ccc(C(=O)O)cc3)c(=O)c2c1",
    "val": 6.30
  }
]

###

target.system: GluN1/GluN2A HDYS/QEQY + F680L + Y754K (Rattus norvegicus, UniProt P35439+Q00959, D675E/F680L/H674Q/S677Y/Y676Q/Y754K)
Sequence (Q00959 23-1464 H674Q/D675E/Y676Q/S677Y/F680L/Y754K, other chains not shown): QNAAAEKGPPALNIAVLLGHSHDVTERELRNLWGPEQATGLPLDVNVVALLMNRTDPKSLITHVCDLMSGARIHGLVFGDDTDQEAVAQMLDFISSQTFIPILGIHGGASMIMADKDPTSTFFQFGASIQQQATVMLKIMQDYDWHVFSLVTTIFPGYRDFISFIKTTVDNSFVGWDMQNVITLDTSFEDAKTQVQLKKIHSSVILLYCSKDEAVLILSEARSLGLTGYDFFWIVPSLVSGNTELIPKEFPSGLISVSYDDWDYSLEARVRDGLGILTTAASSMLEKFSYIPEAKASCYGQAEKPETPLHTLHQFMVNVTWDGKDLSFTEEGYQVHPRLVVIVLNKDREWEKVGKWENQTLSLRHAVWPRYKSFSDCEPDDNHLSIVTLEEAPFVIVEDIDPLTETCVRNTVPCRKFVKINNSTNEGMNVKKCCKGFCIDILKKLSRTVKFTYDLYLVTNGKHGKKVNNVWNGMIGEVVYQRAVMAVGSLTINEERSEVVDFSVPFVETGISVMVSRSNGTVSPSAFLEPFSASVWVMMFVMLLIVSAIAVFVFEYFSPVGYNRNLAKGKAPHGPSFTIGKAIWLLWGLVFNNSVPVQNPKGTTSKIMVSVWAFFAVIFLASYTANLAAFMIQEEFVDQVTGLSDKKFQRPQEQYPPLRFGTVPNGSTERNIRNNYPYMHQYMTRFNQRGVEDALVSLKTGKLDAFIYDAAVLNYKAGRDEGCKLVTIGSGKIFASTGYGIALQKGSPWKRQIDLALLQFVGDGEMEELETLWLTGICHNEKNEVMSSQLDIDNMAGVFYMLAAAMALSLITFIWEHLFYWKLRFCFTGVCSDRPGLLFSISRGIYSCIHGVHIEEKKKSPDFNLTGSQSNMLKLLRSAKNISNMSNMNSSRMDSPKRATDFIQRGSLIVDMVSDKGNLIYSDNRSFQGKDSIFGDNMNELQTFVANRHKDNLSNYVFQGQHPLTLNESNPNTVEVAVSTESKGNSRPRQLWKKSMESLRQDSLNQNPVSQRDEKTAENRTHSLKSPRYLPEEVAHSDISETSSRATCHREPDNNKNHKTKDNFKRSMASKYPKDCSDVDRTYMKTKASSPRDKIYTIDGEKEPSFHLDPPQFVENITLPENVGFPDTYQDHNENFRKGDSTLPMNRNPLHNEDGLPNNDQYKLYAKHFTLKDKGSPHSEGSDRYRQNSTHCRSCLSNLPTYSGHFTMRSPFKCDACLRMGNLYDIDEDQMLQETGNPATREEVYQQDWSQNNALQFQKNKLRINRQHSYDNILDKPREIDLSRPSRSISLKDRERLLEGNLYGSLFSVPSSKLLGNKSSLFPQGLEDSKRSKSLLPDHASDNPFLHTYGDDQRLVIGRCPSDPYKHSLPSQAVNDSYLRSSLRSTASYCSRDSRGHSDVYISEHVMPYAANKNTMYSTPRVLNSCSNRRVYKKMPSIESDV
test.description: Two-electrode voltage-clamp recordings, mutant receptor in Xenopus oocytes
pIC50: −log10 of the molar value.
metric: pIC50

[
  {
    "structure.string": "COc1ccc2nc(/C=C/c3cccc([N+](=O)[O-])c3)n(-c3ccc(C(=O)O)cc3)c(=O)c2c1",
    "metric": "pIC50",
    "val": 4.77
  }
]

###

target.system: GluN1/GluN2D Y729A (Rattus norvegicus, UniProt P35439+Q62645, Y729A)
test.description: Two-electrode voltage-clamp recordings, mutant receptor in Xenopus oocytes
pIC50: −log10 of the molar value.

[
  {
    "structure.string": "COc1ccc2nc(/C=C/c3cccc([N+](=O)[O-])c3)n(-c3ccc(C(=O)O)cc3)c(=O)c2c1",
    "pIC50": 6.15
  }
]
